List of Kd tested on FAP protein (Homo sapiens).
Sequence (Q12884 whole entry): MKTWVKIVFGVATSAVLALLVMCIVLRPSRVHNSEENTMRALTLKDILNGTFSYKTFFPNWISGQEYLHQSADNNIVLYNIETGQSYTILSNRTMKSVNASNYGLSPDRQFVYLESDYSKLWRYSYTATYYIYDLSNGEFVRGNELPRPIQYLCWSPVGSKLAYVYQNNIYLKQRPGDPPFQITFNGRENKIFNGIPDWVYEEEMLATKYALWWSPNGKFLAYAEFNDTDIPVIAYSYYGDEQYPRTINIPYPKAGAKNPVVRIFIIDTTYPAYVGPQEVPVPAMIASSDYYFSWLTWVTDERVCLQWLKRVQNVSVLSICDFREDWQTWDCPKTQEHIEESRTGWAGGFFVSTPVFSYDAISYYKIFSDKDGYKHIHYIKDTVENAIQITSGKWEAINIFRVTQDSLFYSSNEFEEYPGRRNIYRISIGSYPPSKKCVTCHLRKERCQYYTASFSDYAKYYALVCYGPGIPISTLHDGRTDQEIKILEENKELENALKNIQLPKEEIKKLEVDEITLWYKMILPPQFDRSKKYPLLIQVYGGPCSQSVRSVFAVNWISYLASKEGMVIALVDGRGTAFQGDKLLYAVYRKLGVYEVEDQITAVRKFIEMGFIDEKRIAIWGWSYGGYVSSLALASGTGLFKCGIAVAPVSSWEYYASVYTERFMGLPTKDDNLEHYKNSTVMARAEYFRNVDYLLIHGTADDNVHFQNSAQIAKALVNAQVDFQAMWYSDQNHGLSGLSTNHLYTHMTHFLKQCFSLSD

N#C[C@@H]1CC(F)(F)CN1C(=O)CNC(=O)c1ccc2c(c1)CCN(C(=O)CCC(=O)NCC(=O)N1CN(C(=O)CNC(=O)CCC(=O)N3CCc4cc(C(=O)NCC(=O)N5CC(F)(F)C[C@H]5C#N)ccc4C3)CN(C(=O)CNC(=O)CN3CCN(CC(=O)O)CCN(CC(=O)O)CCN(CC(=O)O)CC3)C1)C2 [JHDB6]	< 10 nM

Query compound follows.
Task item: Determine reported Kd for C[C@@H](NC(=O)c1cnc2c(c1)CCN(C(=O)CCC(=O)NCCNC(=O)CCC(C(=O)O)N1CCN(CC(=O)O)CCN(CC(=O)O)CCN(CC(=O)O)CC1)C2)C(=O)N1CC(F)(F)C[C@H]1C#N (some centres unmarked) [JHM1] ; test system: FAP protein (Homo sapiens).
Reply: 100 to 1000 nM

###

Molecular target: recombinant human fibroblast activation protein (FAP) (Homo sapiens, UniProt Q12884)
Experiment: Selective assay, protease inhibition (FAP)
Settings: substrate Z-Gly-Pro-AMC
measureName: IC50

Task item: Give IC50; test system recombinant human fibroblast activation protein (FAP) (Homo sapiens, UniProt Q12884); molecule N#C[C@@H]1CC(F)(F)CN1C(=O)CNC(=O)c1cccc2c1CCN(C(=O)CCC(=O)NCCNC(=O)CCC(C(=O)O)N1CCN(CC(=O)O)CCN(CC(=O)O)CCN(CC(=O)O)CC1)C2 (stereo partly shown)
Reply: 10 to 100 nM

###

Listed here are molecules together with their documented Kd.
Target: FAP protein (Homo sapiens)

N#C[C@@H]1CC(F)(F)CN1C(=O)CNC(=O)c1cc2c(s1)CCN(C(=O)CCC(=O)NCCNC(=O)CCC(C(=O)O)N1CCN(CC(=O)O)CCN(CC(=O)O)CCN(CC(=O)O)CC1)C2 (stereo partly drawn)	< 10 nM

Task item: Specify Kd for N#C[C@@H]1CC(F)(F)CN1C(=O)CNC(=O)c1cccc(C2CCN(C(=O)CCC(=O)NCCNC(=O)CCC(C(=O)O)N3CCN(CC(=O)O)CCN(CC(=O)O)CCN(CC(=O)O)CC3)CC2)c1 (stereo partly drawn) , system FAP protein (Homo sapiens).
Reply: < 10 nM

Task item: Check FAP protein (Homo sapiens) data and give Kd for N#C[C@@H]1CC(F)(F)CN1C(=O)CNC(=O)c1cccc2c1CCCN2C(=O)CCC(=O)NCCNC(=O)CCC(C(=O)O)N1CCN(CC(=O)O)CCN(CC(=O)O)CCN(CC(=O)O)CC1 (stereo partly drawn) .
Reply: < 10 nM

Task item: Report measured Kd on FAP protein (Homo sapiens); entry: N#C[C@@H]1CC(F)(F)CN1C(=O)CNC(=O)c1cccc(C2CCN(C(=O)CCC(=O)NCC(=O)N3CN(C(=O)CNC(=O)CCC(=O)N4CCC(c5cccc(C(=O)NCC(=O)N6CC(F)(F)C[C@H]6C#N)c5)CC4)CN(C(=O)CNC(=O)CN4CCN(CC(=O)O)CCN(CC(=O)O)CCN(CC(=O)O)CC4)C3)CC2)c1
Reply: 10 to 100 nM

Task item: Give reported Kd for N#C[C@@H]1CC(F)(F)CN1C(=O)CNC(=O)c1cnc2c(c1)CCN(C(=O)CCC(=O)NCCNC(=O)CCC(C(=O)O)N1CCN(CC(=O)O)CCN(CC(=O)O)CCN(CC(=O)O)CC1)C2 (stereo partly drawn) (FAP protein (Homo sapiens))
Reply: 10 to 100 nM

Task item: Output reported Kd of the molecule N#C[C@@H]1CC(F)(F)CC1C(=O)CNC(=O)c1ccc2c(c1)CCN(C(=O)CCC(=O)NCCNC(=O)CCC(C(=O)O)N1CCN(CC(=O)O)CCN(CC(=O)O)CCN(CC(=O)O)CC1)C2 (stereo partly drawn) on FAP protein (Homo sapiens).
Reply: 100 to 1000 nM
